# reported % site 1 α1D; entries follow
TARGET_OF_ASSAY: full-length human α1D-adrenoceptor (Homo sapiens, UniProt P25100)
Sequence (P25100 whole entry): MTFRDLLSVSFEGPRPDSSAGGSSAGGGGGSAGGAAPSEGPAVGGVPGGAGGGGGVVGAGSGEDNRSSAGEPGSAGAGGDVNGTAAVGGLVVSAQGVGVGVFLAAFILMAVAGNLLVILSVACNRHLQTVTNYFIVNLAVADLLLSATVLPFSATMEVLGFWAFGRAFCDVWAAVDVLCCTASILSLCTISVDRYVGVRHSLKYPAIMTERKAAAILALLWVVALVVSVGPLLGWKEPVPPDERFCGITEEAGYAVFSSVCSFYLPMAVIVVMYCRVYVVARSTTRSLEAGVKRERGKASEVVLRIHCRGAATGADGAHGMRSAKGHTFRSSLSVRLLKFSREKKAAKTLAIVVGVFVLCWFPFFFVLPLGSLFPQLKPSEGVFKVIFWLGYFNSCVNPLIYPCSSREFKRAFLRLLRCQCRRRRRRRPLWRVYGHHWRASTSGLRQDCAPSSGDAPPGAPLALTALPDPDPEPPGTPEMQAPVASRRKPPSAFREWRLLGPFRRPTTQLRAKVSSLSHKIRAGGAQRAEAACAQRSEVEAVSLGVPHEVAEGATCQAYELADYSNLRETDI
MEASUREMENT_NOTES: [3H]prazosin whole-cell competition binding, CHO-α1D cells
CONDITION_PARAMETERS: two-component inhibition curve, proportion of site 1

Take a look at these entries with their results.
- COMPOUND: "O=C1Nc2ccccc2C2=NC(CN3CCN(c4ccccc4)CC3)CN12 (centres unmarked)"
  % site 1 α1D: "57.6 ± 2.8%"
- COMPOUND: "COc1ccccc1N1CCN(CC2CN3C(=O)N(C)c4ccccc4C3=N2)CC1 (centres unmarked)"
  % site 1 α1D: "64.0 ± 2.1%"

[Q] // lookup % site 1 α1D | system=full-length human α1D-adrenoceptor (Homo sapiens, UniProt P25100) | key= `CN1CC[C@]2(CCN3CCc4c(oc5ccccc45)[C@@H]3C2)N(C)C1=O.Cl`
[A] 61.2 ± 5.5%

----------
TARGET_OF_ASSAY: human α1A-adrenoceptor (Homo sapiens)
Construct: CHO cells stably expressing either the full‐length human α1A, α1B, or α1D‐adrenoceptor
Sequence (P35348 1-466): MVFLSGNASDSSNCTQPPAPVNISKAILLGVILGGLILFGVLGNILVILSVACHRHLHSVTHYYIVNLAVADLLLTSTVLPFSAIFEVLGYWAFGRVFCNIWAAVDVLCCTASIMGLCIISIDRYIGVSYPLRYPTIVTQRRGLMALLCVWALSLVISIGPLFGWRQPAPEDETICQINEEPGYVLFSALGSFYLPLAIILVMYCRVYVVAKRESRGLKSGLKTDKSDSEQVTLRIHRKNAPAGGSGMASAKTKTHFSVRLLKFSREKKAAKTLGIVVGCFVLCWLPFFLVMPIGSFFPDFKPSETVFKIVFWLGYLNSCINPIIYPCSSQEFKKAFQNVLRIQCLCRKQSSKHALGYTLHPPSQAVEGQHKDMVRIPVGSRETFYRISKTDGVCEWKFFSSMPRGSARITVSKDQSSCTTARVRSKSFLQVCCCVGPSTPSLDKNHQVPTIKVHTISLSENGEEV
MEASUREMENT_NOTES: [3H]prazosin whole-cell competition binding, CHO-α1A cells
CONDITION_PARAMETERS: subtype not given; ligands with α1A selectivity (Table 1: α1A); read-out: affinity
PROPERTY: Kd

- MOL: "Cc1c[nH]c(=O)n(CCCN2CCN(c3ccccc3OCC(F)(F)F)CC2)c1=O"
  OBSERVED: "< 0.25 nM"

[Q] What value of measured Kd is listed for `C[C@H](Cc1cc2c(c(C(N)=O)c1)N(CCCO)CC2)NCCOc1ccccc1OCC(F)(F)F` ?
[A] < 0.25 nM

----------
TARGET_OF_ASSAY: human α1A-adrenoceptor (Homo sapiens)
Construct: CHO cells stably expressing either the full‐length human α1A, α1B, or α1D‐adrenoceptor
MEASUREMENT_NOTES: [3H]prazosin whole-cell competition binding, CHO-α1A cells
# reported Selectivity ratio α1A vs α1D; entries follow
The response must be a number in fold with no trailing unit.

Take a look at these entries with their results.
- COMPOUND: "CNCCC=C1c2ccccc2CCc2ccccc21"
  Selectivity ratio α1A vs α1D [fold]: 85
- COMPOUND: "Cc1nc2n(c(=O)c1CCN1CCC(c3noc4cc(F)ccc34)CC1)CCCC2O (centres unmarked)"
  Selectivity ratio α1A vs α1D [fold]: 7.8
- COMPOUND: "Cc1ccc(/N=C/N(C)/C=N/c2ccc(C)cc2C)c(C)c1"
  Selectivity ratio α1A vs α1D [fold]: 2.8
- COMPOUND: "CN[C@H]1CC[C@@H](c2ccc(Cl)c(Cl)c2)c2ccccc21"
  Selectivity ratio α1A vs α1D [fold]: 1.3

Consider now this further compound.
[Q] What value of measured Selectivity ratio α1A vs α1D is listed for `COc1ccccc1N1CCN(CCCNc2c(C)c(=O)n(C)c(=O)n2C)CC1` ?
[A] 417

----------
TARGET_OF_ASSAY: human α1B-adrenoceptor (Homo sapiens, UniProt P35368)
Construct: CHO cells stably expressing either the full‐length human α1A, α1B, or α1D‐adrenoceptor
Sequence (P35368 1-520): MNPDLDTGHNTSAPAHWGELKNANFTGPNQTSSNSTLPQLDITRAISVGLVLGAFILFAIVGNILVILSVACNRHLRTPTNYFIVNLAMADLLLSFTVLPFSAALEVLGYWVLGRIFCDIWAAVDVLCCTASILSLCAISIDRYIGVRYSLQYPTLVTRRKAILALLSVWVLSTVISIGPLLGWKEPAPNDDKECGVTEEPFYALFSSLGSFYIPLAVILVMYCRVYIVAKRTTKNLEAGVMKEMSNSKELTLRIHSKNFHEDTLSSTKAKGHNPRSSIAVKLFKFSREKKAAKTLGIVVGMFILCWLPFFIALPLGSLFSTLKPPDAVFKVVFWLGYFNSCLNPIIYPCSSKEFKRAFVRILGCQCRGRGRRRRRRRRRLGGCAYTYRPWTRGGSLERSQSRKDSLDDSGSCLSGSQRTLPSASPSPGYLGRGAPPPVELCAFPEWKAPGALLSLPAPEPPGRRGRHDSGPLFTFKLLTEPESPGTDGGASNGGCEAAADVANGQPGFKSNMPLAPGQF
MEASUREMENT_NOTES: [3H]prazosin whole-cell competition binding, CHO-α1B cells
CONDITION_PARAMETERS: ratio; 1 = no selectivity for a subtype over another
PROPERTY: selectivity α1B vs α1D
Please reply with the value in numeric form only.

[Q] // lookup selectivity α1B vs α1D | system=human α1B-adrenoceptor (Homo sapiens, UniProt P35368) | key= `COc1ccc(NC(=O)N2CCc3c2ccc2ccccc32)cc1N1CCN(C)CC1`
[A] 5.9

[Q] Next molecule: `C[C@H](Cc1cc2c(c(C(N)=O)c1)N(CCCO)CC2)NCCOc1ccccc1OCC(F)(F)F`
[A] 2.8

[Q] Next molecule: CC(C)(C)NCC(O)COc1cccc2[nH]c(C#N)cc12 (centres unmarked)
[A] 3.1

[Q] Next molecule: `CN1CC[C@]2(CCN3CCc4c(oc5ccccc45)[C@@H]3C2)N(C)C1=O.Cl`
[A] 69

[Q] Next molecule: COc1ccccc1N1CCN(CC(O)COc2cccc3ccccc23)CC1 (centres unmarked)
[A] 1.7

----------
TARGET_OF_ASSAY: full-length human α1D-adrenoceptor (Homo sapiens)
MEASUREMENT_NOTES: [3H]prazosin whole-cell competition binding, CHO-α1D cells
CONDITION_PARAMETERS: ratio of KD values; higher α1D affinity (site 1 KD)
Class fulfilled: Selectivity ratio α1B vs α1D at least 7 fold. Class not fulfilled: Selectivity ratio α1B vs α1D below 7 fold.

Examples with answers:
- MOLECULE: "CC(C)(Cc1c[nH]c2ccccc12)NCC(O)COc1ccccc1C#N (stereo not shown) [Bucindolol]"
  CLASS_NAME: "not fulfilled"
- MOLECULE: "CN(C)CCC=C1c2ccccc2CCc2ccccc21 [Amitriptyline]"
  CLASS_NAME: "not fulfilled"
- MOLECULE: "COc1cc2nc(N3CCN(C(=O)c4ccco4)[C@H]4CCCC[C@H]43)nc(N)c2cc1OC (racemic) [Cyclazosin]"
  CLASS_NAME: "fulfilled"

[Q] Is Selectivity ratio α1B vs α1D at least 7 fold? Consider CCS(=O)(=O)N1CCC[C@@H]2CN3CCc4cc(OC)ccc4[C@@H]3C[C@@H]21 [RS79948]
[A] fulfilled

[Q] Next molecule: COc1ccc(NC(=O)N2CCc3c2ccc2ccccc32)cc1N1CCN(C)CC1 [S32212]
[A] not fulfilled

[Q] Next molecule: Cn1cc(C(F)(F)F)nc1-c1ccc(OCC(O)CNCCOc2ccc(O)c(C(N)=O)c2)cc1 (stereo not shown) [CGP20712A]
[A] fulfilled

[Q] Next molecule: COc1ccccc1N1CCN(CCCNc2cc(=O)n(C)c(=O)n2C)CC1 [Urapidil]
[A] fulfilled

[Q] Next molecule: O=C1NCN(c2ccccc2)C12CCN(CC1COc3ccccc3O1)CC2 (stereo not shown) [Spiroxatrine]
[A] fulfilled

[Q] Next molecule: Cc1c[nH]c(=O)n(CCCN2CCN(c3ccccc3OCC(F)(F)F)CC2)c1=O [RS100329]
[A] fulfilled

[Q] Next molecule: CN(C)CCCN1c2ccccc2CCc2ccccc21 [Imipramine]
[A] not fulfilled

[Q] Next molecule: CC(C(O)c1ccc(O)cc1)N1CCC(Cc2ccccc2)CC1 (stereo not shown) [Ifenprodil]
[A] fulfilled

[Q] Next molecule: CCn1ccnc1CC1COc2ccccc2O1 (stereo not shown) [Imiloxan]
[A] fulfilled

[Q] Next molecule: CC(C)(Cc1c[nH]c2ccc(Cl)cc12)NCCOc1ccccc1OCC1CC1.Cl [RS17053]
[A] not fulfilled

[Q] Next molecule: C[C@H](Cc1cc2c(c(C(N)=O)c1)N(CCCO)CC2)NCCOc1ccccc1OCC(F)(F)F [Silodosin]
[A] not fulfilled

[Q] Next molecule: COc1ccc(C(CN(C)C)C2(O)CCCCC2)cc1 (stereo not shown) [Venlafaxime]
[A] fulfilled

[Q] Next molecule: CCC1(C2=NCCN2)Cc2ccccc2O1 (stereo not shown) [Efaroxan]
[A] not fulfilled

[Q] Next molecule: CC(C)OC(=O)c1cc2c(OCC(O)CNC(C)(C)C)cccc2[nH]1 (stereo not shown) [SDZ21009]
[A] fulfilled

[Q] Next molecule: O=C1CCC(=O)N1C[C@H]1CC[C@H]2CN(c3ncccn3)CCN2C1 [Sunepitron]
[A] not fulfilled

[Q] Next molecule: COc1ccccc1N1CCN(CC(O)COc2cccc3ccccc23)CC1 (stereo not shown) [Naftopidil]
[A] not fulfilled
